Recorded values, source paper PMC7478165.

method description: Caco-2 permeability assay
Format: in vitro ADME
particulars: human, Caco-2; pH 7.4, A to B
measured metric: Papp A→B (×10⁻⁶ cm/s)
All answers are understood in ×10⁻⁶ cm/s, so give the number only.

Please give the measured Papp A→B for this molecule: C/C1=C\CC[C@@]2(C)O[C@@H]2[C@H]2OC(=O)[C@@H](CN[C@@H](Cc3ccccc3)C(=O)O)[C@@H]2CC1 [C00010] 1.5

Okay, and C/C1=C\CC[C@@]2(C)O[C@@H]2[C@H]2OC(=O)[C@@H](CN3CCCC3)[C@@H]2CC1 [C00005] ? 15.9

// same read-out, input: C/C1=C\CC[C@@]2(C)O[C@@H]2[C@H]2OC(=O)[C@@H](CN3CCC(c4cc(O)nc(C)n4)CC3)[C@@H]2CC1 [C00008] 2.7

Same for C/C1=C\CC[C@@]2(C)O[C@@H]2[C@H]2OC(=O)[C@@H](CN3CCC(OCc4cccnc4)CC3)[C@@H]2CC1 [C00009] 10.9

###

Provide the recorded inhibition at 100 µM for the entries that follow.
target or test system: hERG K+ channel (Homo sapiens)
Sequence (Q12809 whole entry): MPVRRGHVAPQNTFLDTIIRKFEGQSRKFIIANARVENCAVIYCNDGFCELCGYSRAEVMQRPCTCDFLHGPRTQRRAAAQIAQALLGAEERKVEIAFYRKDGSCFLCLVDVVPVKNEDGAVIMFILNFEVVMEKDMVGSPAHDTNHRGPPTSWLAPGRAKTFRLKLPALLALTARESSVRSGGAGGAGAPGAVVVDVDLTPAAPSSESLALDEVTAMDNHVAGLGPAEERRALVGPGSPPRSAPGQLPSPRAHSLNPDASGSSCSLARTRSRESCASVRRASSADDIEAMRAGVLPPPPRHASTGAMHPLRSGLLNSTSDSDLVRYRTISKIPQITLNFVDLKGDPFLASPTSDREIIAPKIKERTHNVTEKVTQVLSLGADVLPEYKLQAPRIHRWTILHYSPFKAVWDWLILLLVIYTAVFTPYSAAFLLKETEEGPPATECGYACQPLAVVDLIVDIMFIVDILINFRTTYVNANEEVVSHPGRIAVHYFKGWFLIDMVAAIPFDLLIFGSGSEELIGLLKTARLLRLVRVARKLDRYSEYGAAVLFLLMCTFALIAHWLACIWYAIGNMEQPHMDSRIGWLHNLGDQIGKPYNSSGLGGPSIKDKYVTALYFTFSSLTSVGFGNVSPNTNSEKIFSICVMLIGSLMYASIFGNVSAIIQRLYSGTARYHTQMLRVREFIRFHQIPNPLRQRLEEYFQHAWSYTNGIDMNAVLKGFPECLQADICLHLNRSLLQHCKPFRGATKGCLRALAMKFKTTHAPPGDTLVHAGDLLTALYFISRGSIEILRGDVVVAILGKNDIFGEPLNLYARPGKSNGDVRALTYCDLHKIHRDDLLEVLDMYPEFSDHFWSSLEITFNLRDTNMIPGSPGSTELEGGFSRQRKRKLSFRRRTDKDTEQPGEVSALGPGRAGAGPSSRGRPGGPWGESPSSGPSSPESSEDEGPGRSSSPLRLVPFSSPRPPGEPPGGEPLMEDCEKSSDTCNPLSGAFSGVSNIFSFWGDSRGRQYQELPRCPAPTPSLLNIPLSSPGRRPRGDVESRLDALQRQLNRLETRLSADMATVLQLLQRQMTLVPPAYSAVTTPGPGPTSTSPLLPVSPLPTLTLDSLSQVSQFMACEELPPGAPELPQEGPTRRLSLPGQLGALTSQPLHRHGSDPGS
method description: hERG liability assay, IonWorks patch clamp electrophysiology
Assay type: cell-based
particulars: human; 100 μM; read-out: hERG inhibition at top test concentration

Could you share which inhibition at 100 µM value was measured for CC1=CCCC2(C)OC2C2OC(=O)C(CN3CCCC3)C2CC1 (stereo not drawn) ? 45%

Request: C/C1=C\CC[C@@]2(C)O[C@@H]2[C@H]2OC(=O)[C@@H](CN3CCC(c4cc(O)nc(C)n4)CC3)[C@@H]2CC1 24%

Also, C/C1=C\CC[C@@]2(C)O[C@@H]2[C@H]2OC(=O)[C@@H](CN(C)C)[C@@H]2CC1 [DMAPT, dimethyl amino-PTL, reference compound] please. 40%

###

Answer each item with its documented EC50.
System: MEC1 CLL cell line
method description: cells
Parameters: alamarBlue (resazurin reduction) viability assay in MEC1 CLL cells
particulars: Homo sapiens, MEC1, 24 h; read-out: alamarBlue EC50 (uM) average

Please give the measured EC50 for this compound: CC1=CCCC2(C)OC2C2OC(=O)C(CN3CCN(c4ncccn4)CC3)C2CC1 (centres unmarked) 24.8 µM

Consider next the compound CC1=CCCC2(C)OC2C2OC(=O)C(CN(C)Cc3cccc(C(F)(F)F)c3)C2CC1 (centres unmarked) in the same way. > 30 µM

Same again, this time with COCCNCC1C(=O)OC2C1CCC(C)=CCCC1(C)OC21 (centres unmarked) > 30 µM

Moving on to CC1=CCCC2(C)OC2C2OC(=O)C(CN(C)Cc3nc(-c4ccccn4)no3)C2CC1 (centres unmarked) > 30 µM

CCCC1CCN(CC2C(=O)OC3C2CCC(C)=CCCC2(C)OC32)CC1 (centres unmarked) , same question. 22.2 µM

Same again, this time with CC1=CCCC2(C)OC2C2OC(=O)C(CNCCO)C2CC1 (centres unmarked) 19 µM

// repeat for CC1=CCCC2(C)OC2C2OC(=O)C(CN(Cc3sccc3C)C3CC3)C2CC1 (centres unmarked) and report > 30 µM

Repeat with CC1=CCCC2(C)OC2C2OC(=O)C(CN3CCC(C#N)(c4ccccc4)CC3)C2CC1 (centres unmarked) > 30 µM

Also CC1=CCCC2(C)OC2C2OC(=O)C(CNCCc3nccs3)C2CC1 (centres unmarked) , if possible. > 30 µM

# repeat for C/C1=C\CC[C@@]2(C)O[C@@H]2[C@H]2OC(=O)[C@@H](CN3CCC(c4ccc(C(N)=O)cc4)CC3)[C@@H]2CC1 13.8 µM

Next up: CC1=CCCC2(C)OC2C2OC(=O)C(CNCc3c(F)cccc3Cl)C2CC1 (centres unmarked) > 30 µM

Again, but for CC1=CCCC2(C)OC2C2OC(=O)C(CNCc3ccc(Cl)cc3F)C2CC1 (centres unmarked) > 30 µM

Moving on to the next compound: CC1=CCCC2(C)OC2C2OC(=O)C(CN3CCN(CCc4cccs4)CC3)C2CC1 (centres unmarked) > 30 µM

Then CCN(Cc1cc(Cl)ccc1OC)CC1C(=O)OC2C1CCC(C)=CCCC1(C)OC21 (centres unmarked) ? 19.8 µM

Another: CC1=CCCC2(C)OC2C2OC(=O)C(CN3CCCCC3)C2CC1 (centres unmarked) 7.8 µM

Next entry: CC1=CCCC2(C)OC2C2OC(=O)C(CNCC(C)(C)N3CCOCC3)C2CC1 (centres unmarked) > 30 µM

// same read-out, input: CC1=CCCC2(C)OC2C2OC(=O)C(CNCCOc3cccc(C)c3)C2CC1 (centres unmarked) 21.9 µM

Likewise for CC1=CCCC2(C)OC2C2OC(=O)C(CNCc3c(F)cccc3C(F)(F)F)C2CC1 (centres unmarked) ? > 30 µM

Next up: CC1=CCCC2(C)OC2C2OC(=O)C(CNCc3ccccc3C(F)(F)F)C2CC1 (centres unmarked) > 30 µM

Would you mind doing CC1=CCCC2(C)OC2C2OC(=O)C(CNCC3CCOCC3)C2CC1 (centres unmarked) as well? 23.3 µM

Try the compound C/C1=C\CC[C@@]2(C)O[C@@H]2[C@H]2OC(=O)[C@@H](CN(CC3CC3)C(C)C)[C@@H]2CC1 12.2 µM

Can you handle COc1ccc(-c2noc(CNCC3C(=O)OC4C3CCC(C)=CCCC3(C)OC43)n2)cc1OC (centres unmarked) next? > 30 µM

Could you do the same for CC1=CCCC2(C)OC2C2OC(=O)C(CN3CCN(C)CC3)C2CC1 (centres unmarked) , please? > 30 µM

What do we get for C#CCNCC1C(=O)OC2C1CCC(C)=CCCC1(C)OC21 (centres unmarked) ? > 30 µM

Record: CCCc1nc(CN(CC)CC2C(=O)OC3C2CCC(C)=CCCC2(C)OC32)no1 (centres unmarked) > 30 µM

Also check CC1=CCCC2(C)OC2C2OC(=O)C(CN3CCN(Cc4cccc(C)c4)C(=O)C3)C2CC1 (centres unmarked) > 30 µM

Now try COc1ccccc1CNCC1C(=O)OC2C1CCC(C)=CCCC1(C)OC21 (centres unmarked) . > 30 µM

Next record, please: CC1=CCCC2(C)OC2C2OC(=O)C(CN(C)Cc3nnc(-c4ccccc4)o3)C2CC1 (centres unmarked) > 30 µM

Ok, now CC1=CCCC2(C)OC2C2OC(=O)C(CN(C)Cc3ccc(Cl)cc3)C2CC1 (centres unmarked) 18.3 µM

Same read-out for CC1=CCCC2(C)OC2C2OC(=O)C(CN(Cc3ccncc3)Cc3ccc4c(c3)OCO4)C2CC1 (centres unmarked) ? > 30 µM

Follow-up item: CC1=CCCC2(C)OC2C2OC(=O)C(CNCc3c(Cl)cccc3Cl)C2CC1 (centres unmarked) > 30 µM

Please answer likewise for CCOc1cccc(CN(CCO)CC2C(=O)OC3C2CCC(C)=CCCC2(C)OC32)c1 (centres unmarked) 19.2 µM
